Cited source for all entries: PubChem BioAssay (NCATS)

test.summary: Cellular Toxicity (caspase-3) HUV-EC-C (AID 656);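 note: cells exposed to compound for 16 h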
run.parameters: HUV-EC-C cells, caspase-3 activation (apoptosis), vehicle = 0, 100 µM tamoxifen = 100%; series mostly up to 92.2 µM
Calls of active or inactive are those of the source. Calls come from the whole dose curve; as a rule, active = well fitted curve in the direction sought with a large enough effect; inconclusive = small, poorly fitted or top-dose-only effect, or another doubt; inactive = no such curve, though single readings can be large or run the other way.
measure: outcome

[[record]]
compound = "ClC(Cl)(Cl)c1ccccc1"
data_value = "inactive"

[[record]]
compound = "O=C(Cl)/C=C/C(=O)Cl"
data_value = "inactive"

[[record]]
compound = "C=CC1CC=CCC1 (centres undefined)"
data_value = "inactive"

[[record]]
compound = "Clc1ccc2ccccc2c1"
data_value = "inactive"

[[record]]
compound = "Cc1ccc2ccccc2c1"
data_value = "inactive"

[[record]]
compound = "Nc1c(Cl)c(Cl)nc(C(=O)O)c1Cl"
data_value = "inactive"

[[record]]
compound = "c1ccc(N=Nc2ccccc2)cc1"
data_value = "inactive"

[[record]]
compound = "C=CCOC(=O)c1ccccc1N"
data_value = "inactive"

[[record]]
compound = "OCC1CO1 (centres undefined)"
data_value = "inactive"

[[record]]
compound = "OCC(Br)CBr (centres undefined)"
data_value = "inactive"

[[record]]
compound = "CCSC(=O)Cl"
data_value = "inactive"

[[record]]
compound = "Clc1nc(Cl)nc(Cl)n1"
data_value = "inactive"

[[record]]
compound = "O=NN(CCO)CCO"
data_value = "inactive"

[[record]]
compound = "Oc1ccc(Cl)cc1Cl"
data_value = "inactive"

[[record]]
compound = "C=C(C)C(=O)OCC1CO1 (centres undefined)"
data_value = "inactive"

[[record]]
compound = "Cc1ccc(O)c(C)c1"
data_value = "inactive"

[[record]]
compound = "c1ccc(-c2ccccc2)cc1"
data_value = "inactive"

[[record]]
compound = "Nc1ccccc1Cl"
data_value = "inactive"

[[record]]
compound = "CC(C)(c1ccccc1)c1ccc(O)cc1"
data_value = "inactive"

[[record]]
compound = "COc1ccc(C=O)cc1OC"
data_value = "inactive"

[[record]]
compound = "ClC(Cl)=C(c1ccc(Cl)cc1)c1ccc(Cl)cc1"
data_value = "inactive"

[[record]]
compound = "Brc1ccccc1"
data_value = "inactive"

[[record]]
compound = "CCCC(=O)Cl"
data_value = "inactive"

[[record]]
compound = "C=C(C)C#N"
data_value = "inactive"

[[record]]
compound = "CCCCOCCOP(=O)(OCCOCCCC)OCCOCCCC"
data_value = "inactive"

[[record]]
compound = "C[C@]12CC[C@H]3[C@@H](CCC4=CC(=O)CC[C@@]43C)[C@@H]1CC[C@@H]2O"
data_value = "inactive"

[[record]]
compound = "Cc1ccc([N+](=O)[O-])cc1C"
data_value = "inactive"

[[record]]
compound = "COP(=S)(OC)Oc1ccc([N+](=O)[O-])cc1"
data_value = "inactive"

[[record]]
compound = "O=NN(c1ccccc1)c1ccccc1"
data_value = "inactive"

[[record]]
compound = "ClC1=C(Cl)C2(Cl)C3C(Cl)C=CC3C1(Cl)C2(Cl)Cl (centres undefined)"
data_value = "inactive"

[[record]]
compound = "CN=C=S"
data_value = "inactive"

[[record]]
compound = "Clc1cccc(C(Cl)(Cl)Cl)n1"
data_value = "inactive"

[[record]]
compound = "CC(Cl)Cl"
data_value = "inactive"

[[record]]
compound = "CCCCCCCC(=O)Cl"
data_value = "inactive"


###

test.system: Cytochrome P450 1A2 (Homo sapiens) (UniProt P05177)
Sequence (P05177 whole entry, looked up): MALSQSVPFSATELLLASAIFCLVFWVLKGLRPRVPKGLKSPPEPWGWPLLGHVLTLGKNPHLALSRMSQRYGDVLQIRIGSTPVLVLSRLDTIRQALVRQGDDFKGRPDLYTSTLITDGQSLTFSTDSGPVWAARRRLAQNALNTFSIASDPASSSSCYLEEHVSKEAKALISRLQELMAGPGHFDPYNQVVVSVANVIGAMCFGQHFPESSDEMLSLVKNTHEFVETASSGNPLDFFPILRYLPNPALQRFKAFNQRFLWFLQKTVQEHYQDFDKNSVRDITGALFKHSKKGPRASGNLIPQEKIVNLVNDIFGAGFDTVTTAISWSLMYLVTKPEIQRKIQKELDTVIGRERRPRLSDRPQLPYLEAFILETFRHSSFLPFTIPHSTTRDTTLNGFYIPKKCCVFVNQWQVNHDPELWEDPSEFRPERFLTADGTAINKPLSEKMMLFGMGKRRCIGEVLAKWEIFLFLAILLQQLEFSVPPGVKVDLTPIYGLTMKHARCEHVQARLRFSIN
test.summary: p450-cyp1a2 (AID 410)
run.parameters: recombinant CYP1A2, luciferin-ME demethylation, luminescence; series mostly up to 25.6 µM
Results filed as inconclusive are left out. Calls of active or inactive are those of the source. The call rests on the fitted dose curve.
Classes used: active, inactive

[[record]]
smiles_code = "O=C(Nc1ccccc1)N1CC2(CCN(C(=O)Oc3ccccc3)CC2)C1"
test_system = "Cytochrome P450 1A2 (Homo sapiens) (UniProt P05177)"
category_label = "active"

[[record]]
smiles_code = "NC[C@H](O)c1ccc(O)cc1"
test_system = "Cytochrome P450 1A2 (Homo sapiens) (UniProt P05177)"
category_label = "inactive"

[[record]]
smiles_code = "O=C(Oc1ccccc1)N1CCC[C@@]2(CCN(C(c3ccccc3)c3ccccc3)C2)C1"
test_system = "Cytochrome P450 1A2 (Homo sapiens) (UniProt P05177)"
category_label = "active"

[[record]]
smiles_code = "CN(C)[C@@H]1C(=O)C(C(N)=O)=C(O)[C@]2(O)C(=O)C3=C(O)c4c(O)cccc4[C@@](C)(O)[C@H]3[C@H](O)[C@@H]12"
test_system = "Cytochrome P450 1A2 (Homo sapiens) (UniProt P05177)"
category_label = "inactive"

[[record]]
smiles_code = "COc1cc2c(c(OC)c1OC)-c1ccc(O)c(=O)cc1[C@H](N)CC2"
test_system = "Cytochrome P450 1A2 (Homo sapiens) (UniProt P05177)"
category_label = "inactive"

[[record]]
smiles_code = "O=C(Oc1ccccc1)N1CCC[C@@]2(CCN(Cc3ccccc3)C2)C1"
test_system = "Cytochrome P450 1A2 (Homo sapiens) (UniProt P05177)"
category_label = "active"

[[record]]
smiles_code = "c1cc(CN2CCC3(CCNCC3)CC2)ccn1"
test_system = "Cytochrome P450 1A2 (Homo sapiens) (UniProt P05177)"
category_label = "inactive"


###

System: 3D7
test.summary: qHTS profiling for inhibitors of Plasmodium falciparum proliferation (AID 504749); note: nearly all actives have a fitted effect of over 60% in size; note: potency is the fitted concentration of half-maximal effect
run.parameters: P. falciparum in erythrocytes, SYBR Green DNA, 72 h; series mostly up to 28.7 µM
Results filed as inconclusive are left out. Active and inactive are the calls of the source. Calls follow the shape of the dose curve; as a rule, active = well fitted inhibition curve with a large enough effect; inconclusive = small, poorly fitted or top-dose-only effect; inactive = flat fitted curve, though single readings scatter.
measure: Potency

[[record]]
compound = "CCN(CC)C(=O)N[C@@H]1C[C@@H]2c3cccc4[nH]cc(c34)C[C@H]2N(C)C1"
data_value = "inactive"

[[record]]
compound = "C[C@H](N)[C@@H](O)c1ccccc1"
data_value = "inactive"

[[record]]
compound = "CO[C@@H](COC(N)=O)C1=C(N2CC2)C(=O)C(C)=C(N2CC2)C1=O"
data_value = "1.26 µM (active)"

[[record]]
compound = "C[C@]12CC[C@H](O)C[C@H]1CCC1C2CC[C@]2(C)[C@@H](c3ccc(=O)oc3)C[C@H]3O[C@]132 (stereo partly specified)"
data_value = "inactive"

[[record]]
compound = "CCCC[N+]1(C)C2CC(OC(=O)C(CO)c3ccccc3)CC1C1OC12 (stereo unspecified)"
data_value = "inactive"

[[record]]
compound = "NCC[C@H](O)C(=O)N[C@H]1C[C@@H](N)[C@@H](O[C@H]2O[C@@H](CN)[C@@H](O)[C@@H](O)[C@@H]2N)[C@@H](O[C@H]2O[C@@H](CO)[C@@H](O)[C@@H]2O)[C@@H]1O"
data_value = "inactive"


###

test.summary: Primary qHTS for inhibitors of SARS-S pseudo-typed particle cell entry (AID 1479145); note: nearly all actives have a fitted effect of over 45% in size
run.parameters: SARS-S pseudotyped particle cell entry, luciferase reporter; series mostly up to 57.1 µM
Records with an inconclusive call do not appear. The source made the active and inactive calls. Calls follow the shape of the full dose curve.
measure: outcome

[[record]]
molecule = "CCC(O)c1ccccc1 (centres undefined)"
data_value = "inactive"

[[record]]
molecule = "CC(C)=CCC/C(C)=C/CC/C(C)=C/CC/C(C)=C/CC1=C(C)C(=O)c2ccccc2C1=O"
data_value = "inactive"

[[record]]
molecule = "C=C1/C(=C/C=C2\\CCC[C@]3(C)[C@@H]([C@H](C)/C=C/C=C/C(O)(CC)CC)CC[C@@H]23)C[C@@H](O)C[C@@H]1O"
data_value = "inactive"

[[record]]
molecule = "CN1C(CC(=O)c2ccccc2)CCCC1CC(O)c1ccccc1 (centres undefined)"
data_value = "inactive"

[[record]]
molecule = "CCCCCCCCCCCCCCCC(=O)OC1CCCn2c1nc(C)c(CCN1CCC(c3noc4cc(F)ccc34)CC1)c2=O (centres undefined)"
data_value = "inactive"

[[record]]
molecule = "CC1(C)S[C@@H]2[C@H](NC(=O)C(C(=O)O)c3ccsc3)C(=O)N2[C@H]1C(=O)O (some centres undefined)"
data_value = "inactive"

[[record]]
molecule = "C=C1CC[C@H](O)CC1=C/C=C1\\CCC[C@]2(C)[C@@H]([C@H](C)CCCC(C)(C)O)CC[C@@H]12"
data_value = "inactive"

[[record]]
molecule = "CCCC[C@H](C)C[C@H](O)/C=C/[C@H]1[C@H](O)CC(=O)[C@@H]1CCCC/C=C/C(=O)O"
data_value = "inactive"

[[record]]
molecule = "C[C@]12C[C@@H]3S[C@H]3C[C@@H]1CC[C@H]1[C@H]3CC[C@@H](O)[C@@]3(C)CC[C@@H]12"
data_value = "inactive"


###

Test system: TAB113
test.summary: qHTS profiling for inhibitors of Plasmodium falciparum proliferation (AID 504749); note: nearly all actives have a fitted effect of over 60% in size
run.parameters: P. falciparum in erythrocytes, SYBR Green DNA, 72 h; series mostly up to 28.7 µM
Results filed as inconclusive are left out. Activity calls are given as the source filed them. Calls follow the shape of the dose curve; as a rule, active = well fitted inhibition curve with a large enough effect; inconclusive = small, poorly fitted or top-dose-only effect; inactive = flat fitted curve, though single readings scatter.
Outcomes: active, inactive

[[record]]
compound = "O=[As]O[As]=O (stereo not given)"
category_label = "active"

[[record]]
compound = "CO[C@@H](COC(N)=O)C1=C(N2CC2)C(=O)C(C)=C(N2CC2)C1=O"
category_label = "active"

[[record]]
compound = "C=CC1CN2CCC1CC2C(OC(=O)OCC)c1ccnc2ccc(OC)cc12 (stereo not given)"
category_label = "active"

[[record]]
compound = "CNC[C@H](O)c1ccc(O)cc1"
category_label = "inactive"

[[record]]
compound = "O=C1C=C2C=CC3C[C@@]2(O1)C1CCCCN31 (stereo not given in full)"
category_label = "active"

[[record]]
compound = "C[C@]12CC[C@H](OS(=O)(=O)O)CC1=CCC1C2CC[C@]2(C)C(=O)CC[C@@H]12 (stereo not given in full)"
category_label = "inactive"

[[record]]
compound = "CC(C)(O)C1C2OC(=O)C1[C@]1(O)C[C@H]3O[C@]34C(=O)O[C@H]2[C@]14C (stereo not given in full) (tested in a mixture with another compound)"
category_label = "inactive"

[[record]]
compound = "COc1cc(N)c(Cl)cc1C(=O)N[C@@H]1CN2CCC1CC2"
category_label = "inactive"

[[record]]
compound = "C[C@]12CC[C@H](O)C[C@H]1CCC1C2CC[C@]2(C)[C@@H](c3ccc(=O)oc3)C[C@H]3O[C@]132 (stereo not given in full)"
category_label = "inactive"

[[record]]
compound = "CC([C@H](O)c1ccccc1)N(C)C (stereo not given in full)"
category_label = "inactive"

